- target.or.test.system: T1, Human Id1: Histidine (human, UniProt P41134 1-155, limits assumed)
- T1 construct: Fusion protein made in E. coli from vector pGW07; also called h-Id1: his; not shown: His tag
- T1 sequence (looked up): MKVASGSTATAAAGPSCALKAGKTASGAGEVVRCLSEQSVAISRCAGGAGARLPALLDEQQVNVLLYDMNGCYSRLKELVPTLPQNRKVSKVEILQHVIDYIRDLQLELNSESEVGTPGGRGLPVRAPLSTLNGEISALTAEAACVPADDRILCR
- experiment.description: ELISA, Ab 0.100 µg/ml
assay.readout: A450

Incoming: Which value of A450 has been reported for rabbit monoclonal anti-mouse/human Id3, clone #BCH-4/#17-3 (antibody, V domains shown, Rabbit IgG from a rabbit hybridoma; also called m/h Id3 MoAb 17-3; BCH-3/#17-3) VH: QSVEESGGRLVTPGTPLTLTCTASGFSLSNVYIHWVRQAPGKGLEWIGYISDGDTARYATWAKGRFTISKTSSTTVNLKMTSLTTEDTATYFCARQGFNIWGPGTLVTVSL VL: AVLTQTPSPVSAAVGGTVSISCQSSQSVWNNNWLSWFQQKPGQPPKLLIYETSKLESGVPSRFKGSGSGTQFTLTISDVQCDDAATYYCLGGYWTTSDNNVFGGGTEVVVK in the records?
Outgoing: 0.048 A450
